# Target System: T1, UNK ZnF1-3 (human, UniProt Q9C0B0 31-174)
# T1 sequence: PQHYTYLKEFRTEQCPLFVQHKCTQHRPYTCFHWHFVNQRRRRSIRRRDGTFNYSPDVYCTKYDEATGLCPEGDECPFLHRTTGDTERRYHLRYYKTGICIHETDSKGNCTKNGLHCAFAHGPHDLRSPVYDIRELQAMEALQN
# Experiment Summary: nsRBNS (natural sequence RNA bind-n-seq); RBNS binding buffer (assumed for nsRBNS): 25 mM Tris pH 7.5, 150 mM KCl, 3 mM MgCl2, 0.01% Triton X-100, 500 ug/ml BSA, 20 U/ml SUPERase-In, 4 C; UNK is unkempt and MSI1 is Musashi-1; names of the RNAs are library labels; protein concentration not given here; high values mean tight binding
The full ranking holds about 24,000 sequences; the median of “enrichment r” is about 0.99, and the highest 2% start at about 3.7. Many of the other results were omitted from the sample, so the highest values are more common in it than they were.
Quantity: binding signal (enrichment R)
Answers are plain numbers, in enrichment R.

Use the examples below as a reference point.
Binder	Units Text	binding signal
chr16:94646735:94646736:+_ENSMUSG00000040785_ENSMUST00000117648|mus_mus|motif|central (ssRNA) RNA: GGGAGUUCUACAGUCCGACGAUCUGUUUUUAACUUUUUCCAGCAGUUCAUAUGAAAUUCUACCUUACAGUAUUGGCAACAGCGGAUUCGUAUAAAACCCUUAAAGUCUGGAUCAGUUAAGUAAAUCUGAAUUUUAGAAUAUCCCAACAGAGGAUUGAGCAUCA	enrichment R	1.03
chr9:74900086:74900087:+_ENSMUSG00000007656_ENSMUST00000169492|mus_mus|motif|central (ssRNA) RNA: GGGAGUUCUACAGUCCGACGAUCUUGUCCCAAGUGAGGAUACCUUGCCUUUAACUUUGCUUCUUCAGCUUUCUCUGGACGGGUUACUUUAUCUUCCAUUUCCUUUUGCUCCUCCGCAGACGCUGCCUCGGGGACUUCCGCGGACAACAGAGGAUUGAGCAUCA	enrichment R	0.353

# evaluate next
Q. Provide only the value of recorded binding signal for chr7:135123436:135123437:+_ENSMUSG00000030795_ENSMUST00000077609|mus_mus|FALSE|FALSE (ssRNA) RNA: GGGAGUUCUACAGUCCGACGAUCGCCUCCGCGACCAUUUCCACCACCCCGAUUGAAGUCAGCUCGGCGGGUAGCAAAUGAAACUUUAAUAGGAUUCCCAGAGAAUUCUUUACCAUCAAACCAGUCGAUAGCUGCUUUAGCAGACAACAGAGGAUUGAGCAUCA
A. 1.3
